assay-procedure: self-splicing fitness, log relative to wild type (ln ratio); higher = more splicing; Tetrahymena group I intron in knt gene, E. coli kanamycin selection, DiMSum; sequences stand for … in CUCUCU…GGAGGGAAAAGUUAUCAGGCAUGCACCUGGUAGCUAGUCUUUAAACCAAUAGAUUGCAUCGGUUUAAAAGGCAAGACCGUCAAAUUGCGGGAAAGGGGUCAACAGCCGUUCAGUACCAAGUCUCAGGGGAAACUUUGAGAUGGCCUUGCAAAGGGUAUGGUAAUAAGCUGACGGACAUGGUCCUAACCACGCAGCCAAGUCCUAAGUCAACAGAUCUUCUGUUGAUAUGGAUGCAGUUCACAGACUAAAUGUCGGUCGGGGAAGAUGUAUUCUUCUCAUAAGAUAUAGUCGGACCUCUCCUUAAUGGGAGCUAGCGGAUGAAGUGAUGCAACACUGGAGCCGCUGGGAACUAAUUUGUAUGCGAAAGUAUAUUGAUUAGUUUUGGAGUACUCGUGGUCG;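 further: selection with 25 µg/mL kanamycin versus none on LB agar overnight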
assay-conditions: 30 °C
readout-type: self-splicing fitness (ln)
// return just the number, without any unit appended

Example entries and their recorded answers appear below.
query-sequence	self-splicing fitness (ln)
UUAUAGCAAUAUUACGGUAA	-1.31
UCUGAGCAAUAUUACGAUGA	-0.887
GUAAAGCAAUAUUACGUGUC	-1.85

Q) Quick one: give measured self-splicing fitness (ln) for AAUUAGCAAUAUUACGACGA
A) -0.729

Q) Quick one: give measured self-splicing fitness (ln) for GGUAAGCAAUAUUACGUCCA
A) -0.363

Q) Quick one: give measured self-splicing fitness (ln) for ACCGAGCAAUAUUACGUACG
A) -3.75
